test: Synergistic cytotoxicity against mouse L5178 cells assessed as combination index at ED75 using 75:1 test compound to doxorubicin ratio after 48 hrs by MTT-based checkerboard microplate method; type: functional
observable: CI
Lab note: record the figure alone, no unit after it.

Please report the measured CI for CO/N=C1\C=C2[C@H](CC[C@]3(C)[C@@H]([C@@]4(C)OC(C)(C)O[C@@H]4CCC(C)(C)O)CC[C@@]23O)[C@@]2(C)C[C@@H]3OC(C)(C)O[C@@H]3C[C@@H]12
1.06

Please report the measured CI for C=CCO/N=C1/C=C2C3=CC[C@H]([C@@]4(C)OC(C)(C)O[C@@H]4CCC(C)(C)O)[C@@]3(C)CC[C@@H]2[C@@]2(C)C[C@@H]3OC(C)(C)O[C@@H]3C[C@@H]12
0.5

Please report the measured CI for C=CCO/N=C1\C=C2[C@H](CC[C@]3(C)[C@@H]([C@@]4(C)OC(C)(C)O[C@@H]4CCC(C)(C)O)CC[C@@]23O)[C@@]2(C)C[C@@H]3OC(C)(C)O[C@@H]3C[C@@H]12
1.27

Please report the measured CI for CCO/N=C1/C=C2C3=CC[C@H]([C@@]4(C)OC(C)(C)O[C@@H]4CCC(C)(C)O)[C@@]3(C)CC[C@@H]2[C@@]2(C)C[C@@H]3OC(C)(C)O[C@@H]3C[C@@H]12
0.5

Please report the measured CI for CCO/N=C1\C=C2[C@H](CC[C@]3(C)[C@@H]([C@@]4(C)OC(C)(C)O[C@@H]4CCC(C)(C)O)CC[C@@]23O)[C@@]2(C)C[C@@H]3OC(C)(C)O[C@@H]3C[C@@H]12
0.7

Please report the measured CI for CC(C)(O)CC[C@H]1OC(C)(C)O[C@]1(C)[C@H]1CC=C2C3=CC(=O)N[C@@H]4C[C@H]5OC(C)(C)O[C@H]5C[C@]4(C)[C@H]3CC[C@@]21C
0.52

Please report the measured CI for CC(C)(O)CC[C@H]1OC(C)(C)O[C@]1(C)[C@H]1CC[C@@]2(O)C3=C/C(=N\OC(C)(C)C)[C@@H]4C[C@H]5OC(C)(C)O[C@H]5C[C@]4(C)[C@H]3CC[C@]12C
0.67

Please report the measured CI for C=CCO/N=C1/C=C2[C@H](CC[C@]3(C)[C@@H]([C@@]4(C)OC(C)(C)O[C@@H]4CCC(C)(C)O)CC[C@@]23O)[C@@]2(C)C[C@@H]3OC(C)(C)O[C@@H]3C[C@@H]12
0.83

Please report the measured CI for CC(C)(O)CC[C@H]1OC(C)(C)O[C@]1(C)[C@H]1CC=C2C3=C/C(=N\OC(C)(C)C)[C@@H]4C[C@H]5OC(C)(C)O[C@H]5C[C@]4(C)[C@H]3CC[C@@]21C
1.03

Please report the measured CI for CCO/N=C1/C=C2[C@H](CC[C@]3(C)[C@@H]([C@@]4(C)OC(C)(C)O[C@@H]4CCC(C)(C)O)CC[C@@]23O)[C@@]2(C)C[C@@H]3OC(C)(C)O[C@@H]3C[C@@H]12
0.58

Please report the measured CI for CC(C)(O)CC[C@H]1OC(C)(C)O[C@]1(C)[C@H]1CC=C2C3=C/C(=N/OC(C)(C)C)[C@@H]4C[C@H]5OC(C)(C)O[C@H]5C[C@]4(C)[C@H]3CC[C@@]21C
0.67

Please report the measured CI for CO/N=C1/C=C2C3=CC[C@H]([C@@]4(C)OC(C)(C)O[C@@H]4CCC(C)(C)O)[C@@]3(C)CC[C@@H]2[C@@]2(C)C[C@@H]3OC(C)(C)O[C@@H]3C[C@@H]12
0.5
